- Target Under Test: UniProtKB Q969S8
- Sequence (Q969S8 whole entry): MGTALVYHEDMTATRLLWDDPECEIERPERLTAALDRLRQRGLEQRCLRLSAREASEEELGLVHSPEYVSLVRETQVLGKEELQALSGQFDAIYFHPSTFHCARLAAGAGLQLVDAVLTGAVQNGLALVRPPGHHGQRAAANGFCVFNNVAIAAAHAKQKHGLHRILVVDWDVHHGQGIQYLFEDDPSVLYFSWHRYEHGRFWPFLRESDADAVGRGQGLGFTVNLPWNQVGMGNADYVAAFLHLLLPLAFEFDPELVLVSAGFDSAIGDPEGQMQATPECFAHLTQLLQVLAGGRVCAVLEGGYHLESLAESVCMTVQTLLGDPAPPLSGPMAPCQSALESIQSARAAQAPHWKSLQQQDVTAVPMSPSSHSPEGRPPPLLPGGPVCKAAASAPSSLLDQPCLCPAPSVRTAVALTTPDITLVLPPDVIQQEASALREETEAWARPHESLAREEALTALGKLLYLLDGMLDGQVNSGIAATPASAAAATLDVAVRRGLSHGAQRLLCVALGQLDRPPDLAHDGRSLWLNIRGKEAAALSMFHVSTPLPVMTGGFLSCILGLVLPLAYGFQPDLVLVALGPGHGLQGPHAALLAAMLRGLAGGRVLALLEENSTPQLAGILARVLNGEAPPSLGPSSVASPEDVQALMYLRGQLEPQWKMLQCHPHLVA
System: UniProtKB Q969S8 | Read-out: pIC50 | Origin: multiple publications
Interpret pIC50 as the negative base-10 log of the concentration measured in mol/L.

Recorded pIC50, per entry:
compound=O=C1NC[C@@H](c2ccccc2)[C@H]1C(=O)N[C@@H](CCCCCS)C(=O)Nc1ccccc1 measurement=7.85
compound="CC(CCCCCC(=O)NO)n1cc(-c2ncnc3[nH]ccc23)cn1 (configuration not stated)" measurement=7.51
compound=COC(=O)c1ccc(CO/N=C/c2ccc(/C=C/C(=O)NO)cc2)cc1 measurement=5.27

**Q:** Which value of pIC50 has been reported for `Cn1c(/C=C/C(=O)NO)ccc1C(=O)c1ccccc1` in the records?
**A:** 6.55

###

pIC50: −log10 of the molar value.
pIC50 values for Polyamine deacetylase HDAC10 (Homo sapiens, UniProt Q969S8) compiled from several publications are listed below.
Note to self: values exactly at 7 are yes (1). So pIC50 at or above 7 is yes (1), below is no (0).

compound_structure_string=O=C(CCCCCCC(=O)Nc1cccc(-c2cn(-c3ccc(C(F)(F)F)cc3)nn2)c1)NO discrete_label="yes (1)"
compound_structure_string=O=C(/C=C/c1cccc(S(=O)(=O)n2ccc3cc(C(=O)c4ccc(F)cc4)ccc32)c1)NO discrete_label="no (0)"
compound_structure_string=Cn1cc(-c2ccc(S(=O)(=O)n3ccc(/C=C/C(=O)Nc4ccccc4N)c3)cc2)cn1 discrete_label="no (0)"
compound_structure_string=O=C(CCCCCCC(=O)Nc1cccc(-c2cnnn2Cc2ccc(F)cc2)c1)NO discrete_label="yes (1)"
compound_structure_string=Cc1cccc(NC(=O)[C@H](CCCCCS)NC(=O)[C@@H]2CCCC(=O)N2)c1 discrete_label="yes (1)"

**Q:** Is pIC50 at least 7? Consider `Cc1cccc(NC(=O)[C@H](CCCCCS)NC(=O)[C@@H]2CCC(=O)N2)c1`
**A:** yes (1)

**Q:** Repeat with `O=C(CS)NCCCCCCNC(=O)Nc1ccccc1`
**A:** no (0)

**Q:** Param item: `Nc1ccccc1NC(=O)c1ccc(CCn2ncc3c2nc(N)n2nc(-c4ccco4)nc32)cc1`
**A:** no (0)

**Q:** Next: `Cn1cc(CNCC2CCN(c3ncc(C(=O)NO)cn3)CC2)c2ccccc21`
**A:** yes (1)
